Recorded values, source PubChem BioAssay AID1902.

- target or system: S. pyogenes SKKanGAS, kanamycin survival, BacTiterGlo, 6 h
- measurement notes: S. pyogenes SKKanGAS kanamycin growth inhibitors – SKKanGAS strain, luminescence, dose confirmation, streptokinase promoter inhibitor project, dose response (AID 1902);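 note: lower survival reflects blocked streptokinase promoter driving kanamycin resistance gene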
Readings of EC50 for the listed compounds

Below, each entry is followed by its recorded EC50 result.
COc1c(N2CCNC(C)C2)c(F)cc2c(=O)c(C(=O)O)cn(C3CC3)c12 (centres undefined) :: 0.668 µM
CCOC(=O)c1nnn(-c2nonc2-n2cccc2)c1CN1CCC(C)CC1 :: 8.02 µM
O=C(CN1c2ccccc2Sc2ccccc21)NNC(=O)Nc1ccc(Cl)c(Cl)c1 :: 2.23 µM

Now for a further compound.
Incoming: Give recorded EC50. `CSCc1cc(N(C)c2ccccc2)nc(-c2ccccn2)n1`
Outgoing: 0.136 µM
